- Study Target: full-length beta-Catenin (Uniprot ID P35222) (Homo sapiens, UniProt P35222)
- Construct: 10 nM full-length beta-Catenin (Uniprot ID P35222)
- Sequence (P35222 1-781): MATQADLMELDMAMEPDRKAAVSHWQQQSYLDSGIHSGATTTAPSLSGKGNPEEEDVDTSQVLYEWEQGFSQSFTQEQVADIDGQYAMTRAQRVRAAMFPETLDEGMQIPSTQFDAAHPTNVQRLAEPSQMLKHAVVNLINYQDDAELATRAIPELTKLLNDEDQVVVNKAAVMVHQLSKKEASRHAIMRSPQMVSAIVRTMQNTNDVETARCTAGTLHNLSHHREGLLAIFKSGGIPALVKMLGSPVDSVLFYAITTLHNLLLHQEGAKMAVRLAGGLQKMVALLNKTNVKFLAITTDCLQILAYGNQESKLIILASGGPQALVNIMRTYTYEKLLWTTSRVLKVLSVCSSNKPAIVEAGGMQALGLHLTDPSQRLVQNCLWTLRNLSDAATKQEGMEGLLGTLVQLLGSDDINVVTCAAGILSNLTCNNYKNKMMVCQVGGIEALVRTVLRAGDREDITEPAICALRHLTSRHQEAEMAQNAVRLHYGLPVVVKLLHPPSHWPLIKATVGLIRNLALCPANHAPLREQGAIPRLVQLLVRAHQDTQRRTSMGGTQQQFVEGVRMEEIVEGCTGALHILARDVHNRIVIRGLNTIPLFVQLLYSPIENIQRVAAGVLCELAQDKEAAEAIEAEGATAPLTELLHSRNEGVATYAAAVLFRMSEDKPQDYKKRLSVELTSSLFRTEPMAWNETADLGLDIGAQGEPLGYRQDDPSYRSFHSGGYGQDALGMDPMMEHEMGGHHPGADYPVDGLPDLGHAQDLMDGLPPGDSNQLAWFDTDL
- Assay Notes: Fluorescence polarization IC50 (beta-catenin / 5FAM-TCF4 10-53 competition)
- Format: binding
- Run Parameters: fluorescence polarization; read-out: beta-Catenin FP IC50
Please use class 1 for IC50 under 20 nM and class 0 for everything else, ties included.

Molecule	Label Class
CC(=O)N1CCC[C@]12CC=CCCCC1(CCCC=CCCCCCC[C@@](C)(C(=O)N[C@@H](Cc3ccccc3)C(=O)N[C@@H](Cc3csc4ccccc34)C(=O)N[C@@H](CCC(N)=O)C(N)=O)NC(=O)[C@H](CCC(N)=O)NC(=O)[C@H](Cc3ccccc3)NC(=O)[C@H](C)NC(=O)[C@H](C)NC(=O)[C@H](CCC(=O)O)NC(=O)[C@H](CC(=O)O)NC1=O)NC(=O)[C@H](CC(C)C)NC(=O)[C@H](CC(=O)O)NC2=O (some centres unmarked) [I-1458]	class 0
C[C@@H]1NC(=O)[C@H](C)NC(=O)[C@H](CC(=O)O)NC(=O)[C@H](CC(=O)O)NC(=O)C2(CCCC=CCCCOC(=O)N3CC[C@@](C(=O)N[C@@H](Cc4ccsc4)C(=O)N[C@@H](Cc4csc5ccccc45)C(=O)N[C@@H](CCC(N)=O)C(N)=O)(C3)NC(=O)[C@H](CC(N)=O)NC(=O)[C@H](Cc3ccccc3)NC1=O)CCCC=CCS(=O)(=O)N1CCCC1C(=O)N[C@@H](CC(=O)O)C(=O)N[C@@H](CC(C)(C)C)C(=O)N2 (single isomer, unassigned) [I-1576]	class 0
CCNC(=O)CC[C@@H]1NC(=O)[C@H](Cc2cccc(C(=O)O)c2)NC(=O)[C@H](CC(=O)O)NC(=O)C2(CCCC=CCCCOC(=O)N3CC[C@@](C(=O)N[C@@H](Cc4ccsc4)C(=O)N[C@@H](Cc4csc5ccccc45)C(=O)N[C@@H](C)C(N)=O)(C3)NC(=O)[C@H](C(C)C)NC(=O)[C@H](Cc3ccccc3)NC(=O)[C@H](C)NC1=O)CCCC=CC[C@]1(CCCN1C(C)=O)C(=O)N[C@@H](CC(=O)O)C(=O)N[C@@H](CC(C)(C)C)C(=O)N2 (some centres unmarked)	class 1
CC(=O)N1CCC[C@]12CC=CCCCC1(CCCC=CCCCCCC[C@@](C)(C(=O)N[C@@H](Cc3ccccc3)C(=O)N[C@@H](Cc3csc4ccccc34)C(=O)N[C@@H](CCC(N)=O)C(N)=O)NC(=O)[C@H](CC(N)=O)NC(=O)[C@H](Cc3ccc(N)cc3)NC(=O)[C@H](C)NC(=O)[C@H](C)NC(=O)[C@H](CCC(=O)O)NC(=O)[C@H](CC(=O)O)NC1=O)NC(=O)[C@H](C)NC(=O)[C@H](CC(=O)O)NC2=O (some centres unmarked)	class 0
CC(=O)N1CCC[C@]12CC=CCCCC1(CCCC=CCCCOC(=O)N3CC[C@@](C(=O)N[C@@H](Cc4ccccc4Cl)C(=O)N[C@@H](Cc4csc5ccccc45)C(=O)N[C@H](C(N)=O)C(C)C)(C3)NC(=O)[C@H](CC(N)=O)NC(=O)[C@H](Cc3ccccc3)NC(=O)[C@H](C)NC(=O)[C@H](C)NC(=O)[C@H](Cc3cccc(C(=O)O)c3)NC(=O)[C@H](CC(=O)O)NC1=O)NC(=O)[C@H](CC(C)(C)C)NC(=O)[C@H](CC(=O)O)NC2=O (some centres unmarked)	class 1

----------
Recorded chromatographic logD by entry
- Assay Notes: CHI Log D procedure
- Type: physicochemical
- Run Parameters: pH 7.4, CHI Log D

Compound	chromatographic logD
CC(=O)N1CCC[C@]12CC=CCCCC1(CCCC=CCCCOC(=O)N3CC[C@@](C(=O)N[C@@H](Cc4ccccc4Cl)C(=O)N[C@@H](Cc4csc5ccccc45)C(=O)N[C@@H](CO)C(N)=O)(C3)NC(=O)[C@H](CO)NC(=O)[C@H](Cc3ccccc3)NC(=O)[C@H](C)NC(=O)[C@H](C)NC(=O)[C@H](CC(=O)O)NC(=O)[C@H](CC(=O)O)NC1=O)NC(=O)[C@H](CC(C)(C)C)NC(=O)[C@H](CC(=O)O)NC2=O (some centres unmarked)	2.22
CC(=O)N1CCC[C@]12CC=CCCCC1(CCCC=CCCCCCC[C@@](C)(C(=O)N[C@@H](Cc3ccccc3)C(=O)N[C@@H](Cc3c[nH]c4ccccc34)C(=O)N[C@@H](CCC(N)=O)C(N)=O)NC(=O)[C@H](C(C)C)NC(=O)[C@H](Cc3ccccc3)NC(=O)[C@H](C)NC(=O)[C@H](C)NC(=O)[C@H](Cc3cccnc3)NC(=O)[C@H](CC(=O)O)NC1=O)NC(=O)[C@H](C)NC(=O)[C@H](CC(=O)O)NC2=O (some centres unmarked)	2.44
CC(=O)N1CCC[C@]12CC=CCCCC1(CCCC=CCCCCCC[C@@](C)(C(=O)N[C@@H](Cc3cccc(Cl)c3)C(=O)N[C@@H](Cc3csc4ccccc34)C(=O)N[C@@H](CCC(N)=O)C(N)=O)NC(=O)[C@H](CC(N)=O)NC(=O)[C@H](Cc3ccccc3)NC(=O)[C@H](C)NC(=O)[C@H](C)NC(=O)[C@H](CN(CC(=O)O)CC(F)(F)F)NC(=O)[C@H](CC(=O)O)NC1=O)NC(=O)[C@H](CC(C)(C)C)NC(=O)[C@H](CC(=O)O)NC2=O (some centres unmarked)	3.03
COc1ccccc1C[C@H](NC(=O)[C@]12CCN(C1)C(=O)OCCCC=CCCCC1(CCCC=CC[C@]3(CCCN3C(C)=O)C(=O)N[C@@H](CC(=O)O)C(=O)N[C@@H](CC(C)(C)C)C(=O)N1)C(=O)N[C@@H](CC(=O)O)C(=O)N[C@@H](CC(=O)O)C(=O)N[C@@H](C)C(=O)N[C@@H](C)C(=O)N[C@@H](Cc1ccccc1)C(=O)N[C@@H](CC(N)=O)C(=O)N2)C(=O)N[C@@H](Cc1csc2ccccc12)C(=O)N[C@@H](CCC(N)=O)C(N)=O (some centres unmarked)	2.08
CCCCCCCC(=O)NCCCC[C@H](NC(=O)[C@H](CCC(N)=O)NC(=O)[C@H](Cc1csc2ccccc12)NC(=O)[C@H](Cc1ccsc1)NC(=O)[C@]12CCN(C1)C(=O)OCCCC=CCCCC1(CCCC=CC[C@]3(CCCN3C(C)=O)C(=O)N[C@@H](CC(=O)O)C(=O)N[C@@H](CC(C)(C)C)C(=O)N1)C(=O)N[C@@H](CC(=O)O)C(=O)N[C@@H](CC(=O)O)C(=O)N[C@@H](C)C(=O)N[C@@H](C)C(=O)N[C@@H](Cc1ccccc1)C(=O)N[C@@H](CC(N)=O)C(=O)N2)C(N)=O (some centres unmarked)	2.49

----------
- Study Target: full-length beta-Catenin (Uniprot ID P35222) (Homo sapiens, UniProt P35222)
- Construct: 10 nM full-length beta-Catenin (Uniprot ID P35222)
- Assay Notes: Fluorescence polarization IC50 (beta-catenin / 5FAM-TCF4 10-53 competition)
- Assay type: binding
- Run Parameters: fluorescence polarization; read-out: beta-Catenin FP IC50
A collection of compounds and their measured IC50
Assay Metric: IC50 (nM)

Compound	Assay Metric	Reported
CC[C@H](C)[C@@H]1NC(=O)[C@H](CC(=O)O)NC(=O)[C@]2(CC=CCCCC3(CCCC=CCCCCCC[C@@](C)(C(=O)N[C@@H](Cc4ccccc4)C(=O)N[C@@H](Cc4csc5ccccc45)C(=O)N[C@@H](Cc4c[nH]cn4)C(N)=O)NC(=O)[C@H](CC(N)=O)NC(=O)[C@H](Cc4ccccc4)NC(=O)[C@H](C)NC(=O)[C@H](C)NC(=O)[C@H](CC(=O)O)NC(=O)[C@H](CC(=O)O)NC3=O)NC1=O)CCCN2C(C)=O (some centres unmarked) [I-470]	IC50	11
CC(=O)N1CCC[C@]12CC=CCCCC1(CCCC=CCCOC(=O)N3CCC(C(=O)N[C@@H](Cc4ccccc4C(F)(F)F)C(=O)N[C@@H](Cc4csc5ccccc45)C(=O)N[C@@H](CCC(N)=O)C(N)=O)(CC3)NC(=O)[C@H](CC(C)C)NC(=O)[C@H](Cc3ccccc3)NC(=O)[C@H](C)NC(=O)[C@H](C)NC(=O)[C@H](Cc3cccc(C(=O)O)c3)NC(=O)[C@H](CC(=O)O)NC1=O)NC(=O)[C@H](CC(C)(C)C)NC(=O)[C@H](CC(=O)O)NC2=O (some centres unmarked) [I-2580]	IC50	993
CC(=O)N1CCC[C@]12CC=CCCCC1(CCCC=CCCCOC(=O)N3CC[C@@](C(=O)N[C@@H](Cc4ccsc4)C(=O)N[C@@H](Cc4csc5ccccc45)C(=O)N[C@@H](CCC(N)=O)C(N)=O)(C3)NC(=O)[C@H](CC(C)C)NC(=O)[C@H](Cc3ccccc3)NC(=O)[C@H](C)NC(=O)[C@H](C)NC(=O)[C@H](Cc3ccccc3)NC(=O)[C@H](CC(=O)O)NC1=O)NC(=O)[C@H](CC(C)(C)C)NC(=O)[C@H](CC(=O)O)NC2=O (some centres unmarked) [I-1441]	IC50	327
CC(=O)N1CCC[C@]12CC=CCCCC1(CCCC=CCCCOC(=O)N3CC[C@@](C(=O)N[C@@H](Cc4ccccc4Cl)C(=O)N[C@@H](Cc4csc5ccccc45)C(=O)N[C@@H](CC(N)=O)C(N)=O)(C3)NC(=O)[C@H](CC(C)C)NC(=O)[C@H](Cc3ccccc3)NC(=O)[C@H](C)NC(=O)[C@H](C)NC(=O)[C@H](Cc3cccc(C(=O)O)c3)NC(=O)[C@H](CC(=O)O)NC1=O)NC(=O)[C@H](CC(C)(C)C)NC(=O)[C@H](CC(=O)O)NC2=O (some centres unmarked) [I-1904]	IC50	15
CC(=O)N1CCC[C@]12CC=CCCCC1(CCCC=CCCCOC(=O)N3CC[C@@](C(=O)N[C@@H](Cc4ccccc4Cl)C(=O)N[C@@H](Cc4csc5ccccc45)C(=O)N[C@@H](CC(N)=O)C(N)=O)(C3)NC(=O)[C@H](C)NC(=O)[C@H](Cc3ccccc3)NC(=O)[C@H](C)NC(=O)[C@H](C)NC(=O)[C@H](Cc3cccc(C(=O)O)c3)NC(=O)[C@H](CC(=O)O)NC1=O)NC(=O)[C@H](CC(C)(C)C)NC(=O)[C@H](CC(=O)O)NC2=O (some centres unmarked) [I-2035]	IC50	16
